Experiment: Pharmacokinetic study of flunixin in young piglets, comparing administration routes (plasma LC-MS/MS)
Assay type: in vivo, piglets (swine)
Conditions: pig, other: buccal, Buccal, Banamine Transdermal, piglets, read-out: % F (bioavailability)
RECORDED ENDPOINT: bioavailability (%)
State the answer as a number, implicitly in %.

[Q] What measured bioavailability goes with Cc1c(Nc2ncccc2C(=O)O)cccc1C(F)(F)F ?
[A] 40

* * *

Test: Pharmacokinetic study of flunixin in young piglets, comparing administration routes (plasma LC-MS/MS)
Format: in vivo, piglets (swine)
Settings: pig, im, Intramuscular, Banamine-S Injectable Solution, piglets, read-out: % F (bioavailability)
RECORDED ENDPOINT: bioavailability (%)
State the answer as a number, implicitly in %.

[Q] What measured bioavailability goes with Cc1c(Nc2ncccc2C(=O)O)cccc1C(F)(F)F ?
[A] 71

* * *

Experiment: Pharmacokinetic study of flunixin in young piglets, comparing administration routes (plasma LC-MS/MS)
Type: in vivo, piglets (swine)
Conditions: pig, topical or ocular, Midline, Banamine Transdermal, piglets (swine), read-out: % F (bioavailability)
RECORDED ENDPOINT: bioavailability (%)
State the answer as a number, implicitly in %.

[Q] What measured bioavailability goes with Cc1c(Nc2ncccc2C(=O)O)cccc1C(F)(F)F [flunixin, Flunixin] ?
[A] 5

Source listed as patent US20230390260A1.
